# Test system: MS2 coat protein
# Protocol summary: apparent KD of MS2 coat protein; designed switch direction (-1 OFF switch, 1 ON switch): -1; higher = weaker reporter binding
# Experimental conditions: input ligand: none
So I've got a bunch of sequences here, and I need their apparent KD of MS2 coat protein values.
Write your answer as a measured quantity: the number, then the unit.

Past entries and their recorded results:
sequence_code="UGUUGUUACGUAGGAUAUCCACCAACAGGUGGAAGGAUAUGGAAACAGAAGGUUCGCCAACAGGCGGAGAAGGACGUGUUAACU [pwkr exNG2 2xF7 2xFMN.23] (Eterna round: R96, puzzle: Exclusion NG 2)" metric_name="apparent KD of MS2 coat protein" experimental_result="288 nM"
sequence_code="UACAUGAGGAUCACCCAUGUUUUGUCGUGUAUGGUAUUUAUCUAGGAUAUCAUUUUAUUUAGCUAUGAGAAGGAGAAUAUUAAU [JMF's solution 94] (Eterna round: R96, puzzle: Exclusion NG 3)" metric_name="apparent KD of MS2 coat protein" experimental_result="31.2 nM"
sequence_code="GUUUAGUGAGGAUAUAAGGCUUCGAUCGAGCGCGGUCUGCUACAGAAGGCACAUGAGGAUCACCCAUGUUUCUC [salish99_ex4_r4_311] (Eterna round: R97, puzzle: Exclusion 4)" metric_name="apparent KD of MS2 coat protein" experimental_result="34.4 nM"
sequence_code="CGCUCACAUGAGGAUCACCCAUGUCAGGAUAUCUCAGUGCAUCCACACGGACGCAUCAAGAGAAGGGACAAAAC [Vinxlusion 3 - Jieux - Exclusion 1] (Eterna round: R97, puzzle: Exclusion 1)" metric_name="apparent KD of MS2 coat protein" experimental_result="112 nM"

Items follow; give apparent KD of MS2 coat protein for each.
1. ACAUGAGGAUCACCCAUGUCCGGCUGGUCUGUUCCGGUUGUCGAGGAUAUAGUUCGGUGUUCGCGCUAGAAGGCGGGAGCUGGA [Aenatbe mod 53] (Eterna round: R96, puzzle: Exclusion NG 3)
2. GAUCCUUCUGUUAGGAUAUGCAACGGGCUUCCGCAGCAGAAGGAACAUGAGGAUCACCCAUGUCAAAUAAAAUC [JL-BMX4-4.36 ViennaUCT mod] (Eterna round: R97, puzzle: Brourd's mod of Exclusion 4)
3. GGGCCCGGAGGAUAUACAUGAGGAUCACCCAUGUAGGGCCCGGGUAUUCCCGGGCCCUGUAGAAGGUUGGGCCC [-44, -41.2 kcal, A 19%, 0,5c] (Eterna round: R97, puzzle: Exclusion 3)

157 nM
18.7 nM
15.8 nM

Items follow; give apparent KD of MS2 coat protein for each.
1. ACAUGAGGAUCACCCAUGUAAUCAUGAUGGCUGAUGUAGAGUCAGGAUAUGUGUGGCUUUCUAUCACAGAAGGGACAAGACUGG [Deportation 36 - Jieux - Exclusion NG 3] (Eterna round: R96, puzzle: Exclusion NG 3)
2. UUUAUGUGAGGAUAUGCGGGCGGGCGUGAAAAUGUUUGUUUGUAGAAGGUACAUGAGGAUCACCCAUGUAGUGG [-22, -21.6 kcal, 24% A] (Eterna round: R97, puzzle: Exclusion 4)

["34.9 nM", "57.2 nM"]

###

# Tested on: K4 kissing-loop RNA reporter;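 note: bound reporter read as fluorescence of individual clusters on recovered sequencing chips by microscopy, with normalized cluster intensities fitted with a binding model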
# Protocol summary: apparent KD of K4 kissing-loop reporter; higher = weaker reporter binding
# Experimental conditions: Eterna round: R107; input ligand: none
So I've got a bunch of sequences here, and I need their apparent KD of K4 kissing-loop reporter values.

Past entries and their recorded results:
sequence_code="GGAUUGCCAGUGAUGUUGGCAUAAUCUGAAGGAGCGCGUGAAAACGCAGGUAGGUCGCAGAACCUUGCCAACUGAUCGAAAGAUC [Ex Arginine A K4 30]" metric_name="apparent KD of K4 kissing-loop reporter" experimental_result="155 nM"
sequence_code="UUUCGUUGAAGUGAUACCAGACUUGAAAGUGAUGUUUUCCAAUAAUUUAAAUUAUUAGCUGUCCCUUGGCAGCACAGUUUAUUUA [JR_ExcTheophyB_Sub007]" metric_name="apparent KD of K4 kissing-loop reporter" experimental_result="327 nM"
sequence_code="UGUUUUUACUGAAGGAGCGGCAAUUGAUACGUAGAUAUAGUGAUGUUAUAUAAGAUAGAGAGCCAGGUAGGUCGCAGAGUUUUUC [ExArgB.Z]" metric_name="apparent KD of K4 kissing-loop reporter" experimental_result="161 nM"
sequence_code="AAUUCAGUGAUGUUGGAAGGCAAGCGGGAUACCAGCGGAGAAUAACGCCCUUGGCAGCCCAUAUAUCCCAAAUAGAUAAUAGUUC [Same State - Theophylline A (Freestyle 4)]" metric_name="apparent KD of K4 kissing-loop reporter" experimental_result="279 nM"
sequence_code=GGUAGCAUGGCGGCCGCCACUGCAAAGCAUAGCUACGGAAACGUAGCUACAGAGUGAUGUUCUGGCAGGACCGGGCCAUGCUACC metric_name="apparent KD of K4 kissing-loop reporter" experimental_result="692 nM"

Shifting focus to the sequence that follows.
Quick one: apparent KD of K4 kissing-loop reporter for CCGAAGAACCAGUGAUGUUGGUUGACUAGACAGGAUAUGAGCAACAUCAGAAGGGUCUGGCUUCGGGAGUGGGCCGCGCUGACCU [Artilati] ?
240 nM
